Each recorded value in this set is attributed to ChEMBL document CHEMBL1139934.

Target: cGMP-dependent protein kinase (Eimeria tenella)
Listing of recorded IC50 by entry.
State the answer as a number, implicitly in nM.

• CN(C)Cc1ccn2c(-c3ccnc(NCc4cccc(F)c4)n3)c(-c3ccc(F)cc3)nc2c1 = 0.09
• CCCCCCNc1nccc(-c2c(-c3ccc(F)cc3)nc3cc(CN(C)C)ccn23)n1 = 0.13
• CN(C)Cc1ccn2c(-c3ccnc(NC(=O)C4CC4)n3)c(-c3ccc(F)cc3)nc2c1 = 0.42
• CCCC(=O)Nc1nccc(-c2c(-c3ccc(F)cc3)nc3cc(CN(C)C)ccn23)n1 = 0.63

Result for CN(C)Cc1ccn2c(-c3ccnc(NCc4c(F)cccc4F)n3)c(-c3ccc(F)cc3)nc2c1 , tested on cGMP-dependent protein kinase (Eimeria tenella), IC50: 0.06

Readout IC50 for CN(C)Cc1ccn2c(-c3ccnc(NCc4ccc(F)cc4)n3)c(-c3ccc(F)cc3)nc2c1 , test system cGMP-dependent protein kinase (Eimeria tenella), was 0.066

Tested on cGMP-dependent protein kinase (Eimeria tenella), the item Cc1cnc(N)nc1-c1c(-c2ccc(F)cc2)nc2cc(CN(C)C)ccn12 showed IC50 equal to 0.23

Value sought: IC50, system cGMP-dependent protein kinase (Eimeria tenella), item CCC(=O)Nc1nccc(-c2c(-c3ccc(F)cc3)nc3cc(CN(C)C)ccn23)n1 . Result: 0.3

IC50 value, target or system cGMP-dependent protein kinase (Eimeria tenella), for CN(C)Cc1ccn2c(-c3ccnc(NCc4ccc(F)cc4F)n3)c(-c3ccc(F)cc3)nc2c1 : 0.15

---

Measured Activity of individual entries
Tested on: Eimeria mitis
Assay: Anticococcidal activity against Eimeria mitis in Chick assessed as reduction in oocyte at 12.5 ppm relative to control
Assay type: functional
Set-up: scale not given: the % may be the effect or the level left

Answered cases to consult:
- CN(C)Cc1ccn2c(-c3ccnc(NC(=O)C4CCC4)n3)c(-c3ccc(F)cc3)nc2c1: 80%
- CCCNc1nccc(-c2c(-c3ccc(F)cc3)nc3cc(CN(C)C)ccn23)n1: 80%
- CN(C)Cc1ccn2c(-c3ccnc(NCCO)n3)c(-c3ccc(F)cc3)nc2c1: <50%
- CN(C)Cc1ccn2c(-c3ccnc(NC(=O)C4CCCC4)n3)c(-c3ccc(F)cc3)nc2c1: 80%
- CN(C)Cc1ccn2c(-c3ccnc(NC4CC4)n3)c(-c3ccc(F)cc3)nc2c1: 50%

Query CN(C)Cc1ccn2c(-c3ccnc(N)n3)c(-c3ccc(F)cc3)nc2c1 yields Activity of 80%

Value of Activity reported for the compound Cc1cnc(N)nc1-c1c(-c2ccc(F)cc2)nc2cc(CN(C)C)ccn12 is 80%

Entry CCC(=O)Nc1nccc(-c2c(-c3ccc(F)cc3)nc3cc(CN(C)C)ccn23)n1 — recorded Activity = <50%

Note to self: Activity recorded for CN(C)Cc1ccn2c(-c3ccnc(N)n3)c(-c3ccc(F)cc3F)nc2c1 was 80%

// Activity lookup, compound = COCCNc1nccc(-c2c(-c3ccc(F)cc3)nc3cc(CN(C)C)ccn23)n1 , result: <50%

---

Quick record: IC50, UniProt Q8MMZ8.
Output spec: scalar in nM, unitless text.

Below: 8 molecules and their reported IC50.
* CN(C)Cc1ccn2c(-c3ccnc(NCCO)n3)c(-c3ccc(F)cc3)nc2c1 | 0.3
* CN(C)Cc1ccn2c(-c3ccnc(NC=O)n3)c(-c3ccc(F)cc3)nc2c1 | 0.45
* CN(C)Cc1ccn2c(-c3ccnc(NCC4CC4)n3)c(-c3ccc(F)cc3)nc2c1 | 0.064
* CN(C)Cc1ccn2c(-c3nc(N)ncc3Br)c(-c3ccc(F)cc3)nc2c1 | 5.8
* Cc1ccccc1CNc1nccc(-c2c(-c3ccc(F)cc3)nc3cc(CN(C)C)ccn23)n1 | 0.08
* CN(C)Cc1ccn2c(-c3ccnc(NC4CCCCC4)n3)c(-c3ccc(F)cc3)nc2c1 | 0.12
* CN(C)Cc1ccn2c(-c3nc(N)ncc3C#N)c(-c3ccc(F)cc3)nc2c1 | 1.6
* CN(C)Cc1ccn2c(-c3ccnc(NCc4cccc(F)c4F)n3)c(-c3ccc(F)cc3)nc2c1 | 0.12

Noted IC50 for CN(C)Cc1ccn2c(-c3ccnc(N)n3)c(-c3ccc(F)cc3)nc2c1 , tested on UniProt Q8MMZ8: 0.23

CN(C)Cc1ccn2c(-c3ccnc(NCc4ccccc4F)n3)c(-c3ccc(F)cc3)nc2c1 tested on UniProt Q8MMZ8 gave IC50: 0.087

---

Test system: Eimeria maxima
Assay: Anticococcidal activity against Eimeria maxima in Chick assessed as reduction in oocyte at 12.5 ppm relative to control
Type: functional
Parameters: scale not given: the % may be the effect or the level left
The following compounds are listed with their measured Activity values.
Form entry: value (%) — number only.

# count of solved cases: 5
* CN(C)Cc1ccn2c(-c3ccnc(NCc4cccc(F)c4)n3)c(-c3ccc(F)cc3)nc2c1 | 80
* CN(C)Cc1ccn2c(-c3ccnc(NC4CCCCC4)n3)c(-c3ccc(F)cc3)nc2c1 | 80
* CN(C)Cc1ccn2c(-c3ccnc(NCc4c(F)cccc4F)n3)c(-c3ccc(F)cc3)nc2c1 | 80
* COCCNc1nccc(-c2c(-c3ccc(F)cc3)nc3cc(CN(C)C)ccn23)n1 | 80
* CN(C)Cc1ccn2c(-c3ccnc(NC4CCCC4)n3)c(-c3ccc(F)cc3)nc2c1 | 80

Memo: CN(C)Cc1ccn2c(-c3ccnc(NC4CCC4)n3)c(-c3ccc(F)cc3)nc2c1 , reported Activity: 80

---

Test system: Eimeria acervulina
Experiment: Anticococcidal activity against Eimeria acervulina in Chick assessed as reduction in oocyte at 12.5 ppm relative to control
Format: functional
Design: scale not given: the % may be the effect or the level left
attribute.measured: Activity (%)
Report the value in % with no unit label.

Value of Activity reported for the compound COCCNc1nccc(-c2c(-c3ccc(F)cc3)nc3cc(CN(C)C)ccn23)n1 is 80

Recorded result, CN(C)Cc1ccn2c(-c3ccnc(NC4CCCC4)n3)c(-c3ccc(F)cc3)nc2c1 , Activity: 80

Field Activity (entry CCCNc1nccc(-c2c(-c3ccc(F)cc3)nc3cc(CN(C)C)ccn23)n1 ) reads 80

GET /value?item= CN(C)Cc1ccn2c(-c3ccnc(NCCCO)n3)c(-c3ccc(F)cc3)nc2c1 &field=Activity returns 80

Please fill in: Activity reported for CN(C)Cc1ccn2c(-c3ccnc(N)n3)c(-c3ccc(F)cc3F)nc2c1 = 100

---

Test system: Eimeria mitis
Experiment: Anticococcidal activity against Eimeria mitis in Chick assessed as reduction in oocyte at 12.5 ppm relative to control
Format: functional
Design: scale not given: the % may be the effect or the level left
attribute.measured: Activity (%)
Give the value, in units of %, as a plain number.

Here's what some known entries look like.
* CN(C)Cc1ccn2c(-c3ccnc(NC(=O)NC(C)(C)C)n3)c(-c3ccc(F)cc3)nc2c1 | 80
* CN(C)Cc1ccn2c(-c3ccnc(NC(=O)C4CC4)n3)c(-c3ccc(F)cc3)nc2c1 | 80
* CN(C)Cc1ccn2c(-c3ccnc(NCC4CC4)n3)c(-c3ccc(F)cc3)nc2c1 | 80
* CN(C)Cc1ccn2c(-c3ccnc(NC4CCCC4)n3)c(-c3ccc(F)cc3)nc2c1 | 80

Per the record, CN(C)Cc1ccn2c(-c3ccnc(NC4CCCCC4)n3)c(-c3ccc(F)cc3)nc2c1 has Activity of 50

---

Molecular target: cGMP-dependent protein kinase (Eimeria tenella, UniProt Q8MMZ8)
Sequence (Q8MMZ8 whole entry): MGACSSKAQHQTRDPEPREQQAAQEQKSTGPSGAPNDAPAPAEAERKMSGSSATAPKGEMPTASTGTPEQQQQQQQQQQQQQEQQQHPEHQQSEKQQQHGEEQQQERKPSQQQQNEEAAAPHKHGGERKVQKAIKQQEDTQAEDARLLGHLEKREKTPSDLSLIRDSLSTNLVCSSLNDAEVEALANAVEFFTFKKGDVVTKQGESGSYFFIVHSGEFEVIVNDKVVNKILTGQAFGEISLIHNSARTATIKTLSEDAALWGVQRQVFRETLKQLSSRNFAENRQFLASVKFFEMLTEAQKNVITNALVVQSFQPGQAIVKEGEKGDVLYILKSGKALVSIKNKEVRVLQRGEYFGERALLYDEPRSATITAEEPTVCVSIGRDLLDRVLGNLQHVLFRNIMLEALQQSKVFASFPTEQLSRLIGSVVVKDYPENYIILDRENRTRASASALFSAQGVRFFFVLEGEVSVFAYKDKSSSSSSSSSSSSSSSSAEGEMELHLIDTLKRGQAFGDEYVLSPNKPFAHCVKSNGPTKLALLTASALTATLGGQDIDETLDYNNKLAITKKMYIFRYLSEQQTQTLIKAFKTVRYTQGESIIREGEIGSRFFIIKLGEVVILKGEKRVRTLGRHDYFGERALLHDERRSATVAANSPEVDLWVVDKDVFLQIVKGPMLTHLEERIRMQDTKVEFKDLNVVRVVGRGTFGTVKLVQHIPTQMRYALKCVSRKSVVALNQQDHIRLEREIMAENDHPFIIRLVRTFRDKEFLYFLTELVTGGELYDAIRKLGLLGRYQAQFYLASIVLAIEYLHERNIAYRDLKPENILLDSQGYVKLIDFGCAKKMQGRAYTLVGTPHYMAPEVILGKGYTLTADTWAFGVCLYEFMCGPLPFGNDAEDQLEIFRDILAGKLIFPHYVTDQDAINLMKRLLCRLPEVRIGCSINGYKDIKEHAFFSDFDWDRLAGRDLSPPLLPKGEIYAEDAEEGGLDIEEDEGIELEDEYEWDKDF
Entries and their IC50 values follow.
Answer with a number only, understood to be in nM.

• Cc1ccc(CNc2nccc(-c3c(-c4ccc(F)cc4)nc4cc(CN(C)C)ccn34)n2)cc1 = 0.121
• CN(C)Cc1ccn2c(-c3ccnc(NC(=O)C4CCCC4)n3)c(-c3ccc(F)cc3)nc2c1 = 0.21
• COCCCNc1nccc(-c2c(-c3ccc(F)cc3)nc3cc(CN(C)C)ccn23)n1 = 0.25

--- query ---
Tested on cGMP-dependent protein kinase (Eimeria tenella, UniProt Q8MMZ8), the item CN(C)Cc1ccn2c(-c3ccnc(NC(=O)NC(C)(C)C)n3)c(-c3ccc(F)cc3)nc2c1 showed IC50 equal to 4.39

---

Tested on: Eimeria tenella
Experiment: Anticococcidal activity against Eimeria tenella in Chick assessed as reduction in oocyte at 6.25 ppm relative to control
Format: functional
Design: scale not given: the % may be the effect or the level left
attribute.measured: Activity (%)
Give your result in % as a bare value.

* CN(C)Cc1ccn2c(-c3ccnc(NC(=O)C4CCC4)n3)c(-c3ccc(F)cc3)nc2c1 | 80

Per the reported Eimeria tenella data, CN(C)Cc1ccn2c(-c3ccnc(NCCCO)n3)c(-c3ccc(F)cc3)nc2c1 has Activity of 80

---

molecules and their reported Activity
Test system: Eimeria tenella
Assay: Anticococcidal activity against Eimeria tenella in Chick assessed as reduction in oocyte at 6.25 ppm relative to control
Type: functional
Parameters: scale not given: the % may be the effect or the level left

Recorded results for 6 molecules are shown here.
* CN(C)Cc1ccn2c(-c3ccnc(NCc4c(F)cccc4F)n3)c(-c3ccc(F)cc3)nc2c1 | <50%
* CN(C)Cc1ccn2c(-c3ccnc(N)n3)c(-c3c(F)cc(F)cc3F)nc2c1 | <50%
* COCCNc1nccc(-c2c(-c3ccc(F)cc3)nc3cc(CN(C)C)ccn23)n1 | <50%
* CN(C)Cc1ccn2c(-c3ccnc(NCc4cccc(F)c4)n3)c(-c3ccc(F)cc3)nc2c1 | <50%
* CN(C)Cc1ccn2c(-c3ccnc(NC(=O)C4CCCC4)n3)c(-c3ccc(F)cc3)nc2c1 | < 50%
* CN(C)Cc1ccn2c(-c3ccnc(NC4CCCC4)n3)c(-c3ccc(F)cc3)nc2c1 | 80%

// Activity value for CN(C)Cc1ccn2c(-c3nc(N)ncc3F)c(-c3ccc(F)cc3)nc2c1 : 80%

Sample Cc1cnc(N)nc1-c1c(-c2ccc(F)cc2)nc2cc(CN(C)C)ccn12 ; Activity observed: <50%

Form field Activity, entry CN(C)Cc1ccn2c(-c3ccnc(NC(=O)C4CC4)n3)c(-c3ccc(F)cc3)nc2c1 : 50%
